Measured EC50 of individual entries
# experimental-system: REV-ERBα LBD (human; residues 281-614 Δ324-422) (Homo sapiens, UniProt P20393, DEL324-422)
# Construct: 6×Histag-REV-ERBα LBD (human; residues 281-614 Δ324-422); made in house; host or cells: Escherichia coli
# Sequence (P20393 with tags, fused parts or gaps DEL324-422): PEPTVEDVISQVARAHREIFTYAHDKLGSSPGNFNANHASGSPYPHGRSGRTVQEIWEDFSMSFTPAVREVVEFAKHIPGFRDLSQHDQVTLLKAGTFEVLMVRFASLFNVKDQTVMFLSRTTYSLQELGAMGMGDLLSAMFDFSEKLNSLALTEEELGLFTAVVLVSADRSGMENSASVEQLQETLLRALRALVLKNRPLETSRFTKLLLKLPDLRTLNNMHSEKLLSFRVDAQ
# Sequence (Q9Y618 2335-2356 partner limits assumed): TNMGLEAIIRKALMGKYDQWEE
# assay-explanation: TR-FRET corepressor interaction assay (REV-ERBα LBD, FITC-SMRT peptide)
# Assay type: biochemical
# run-parameters: FITC-SMRT peptide, read-out: REVERBα agonism (EC50 class, FRET assay)

CC(C)(C)Cn1cc([C@H](NS(=O)(=O)C2CC2)C(F)(F)F)c2cc(F)c(-c3ccccc3C(F)(F)F)nc21 < 500 nM
N#Cc1cccc(F)c1-c1ccc2c([C@H](NS(=O)(=O)C3CCC3)C(F)(F)F)cn(C3CCOCC3)c2c1 < 500 nM
Cc1cn[nH]c1-c1cc2c(cc1F)c([C@H](NS(=O)(=O)C1CC1)C(F)(F)F)cn2CC(C)C 500 to 3000 nM

Q: So what's the measured EC50 for this one? CC(C)Cn1cc([C@H](NS(=O)(=O)C2CC2)C(F)(F)F)c2cc(F)c(-c3cscn3)cc21
Result: 500 to 3000 nM

Q: Please report the recorded EC50 for N#CC1(Cn2cc([C@H](NS(=O)(=O)C3CC3)C(F)(F)F)c3cc(F)c(-c4ccccc4C(F)(F)F)cc32)CC1 .
Result: 500 to 3000 nM

Q: Param item = CC(C)(C)Cn1cc([C@@H](CO)NS(=O)(=O)C2CC2)c2ccc(-c3ccccc3C(F)(F)F)cc21 ; retrieve measured EC50.
Result: < 500 nM

Q: What value of EC50 has been reported for the following compound? [2H][C@](NS(=O)(=O)C1CC1)(c1cn(CC(C)(C)C)c2cc(-c3ccccc3C(F)(F)F)ccc12)C(F)F
Result: < 500 nM
